Hello, the source for this data is patent US20240270821A1, in case you need it.

Collected cAMP Rel EC50 (in the presence of 1% HSA) values appear next to each entry.
targetSystem: hGLP-1R (Homo sapiens, UniProt P43220)
Sequence (P43220 24-463): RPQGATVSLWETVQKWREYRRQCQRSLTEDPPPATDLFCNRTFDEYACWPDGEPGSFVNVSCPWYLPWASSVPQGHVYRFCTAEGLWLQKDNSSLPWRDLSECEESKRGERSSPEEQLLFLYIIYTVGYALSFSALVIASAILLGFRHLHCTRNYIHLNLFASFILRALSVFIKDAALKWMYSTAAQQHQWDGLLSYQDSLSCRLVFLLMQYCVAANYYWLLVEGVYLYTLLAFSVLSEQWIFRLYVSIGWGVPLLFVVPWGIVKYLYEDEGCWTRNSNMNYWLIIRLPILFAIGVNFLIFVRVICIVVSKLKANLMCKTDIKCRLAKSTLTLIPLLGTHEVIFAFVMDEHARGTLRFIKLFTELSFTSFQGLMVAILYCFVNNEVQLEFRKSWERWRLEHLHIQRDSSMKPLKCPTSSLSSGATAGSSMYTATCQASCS
testDetails: cell-based or functional assay
# number only, unit nM dropped from output

Completed entries (count: 2):
YXQGTXTSDXXIXLDXKAQXEFIEXLIEGGPSSGEPPPSGE (non-natural residues; lipidated Lys; C-terminal amide; synthetic construct; SITE 2: note = 2-Aminoisobutyric Acid; SITE 6: note = alpha-methyl-L-phenylalanine; SITE 10: note = 3-(4-Pyridyl)-L-alanine; SITE 11: note = alpha-methyl-L-serine; SITE 13: note = alpha-methyl-leucine; SITE 16: note = L-ornithine; SITE 17: note = Lysine is chemically modified th) [Example 1165]
87.7
YXQGTFTSDFSKXLDKKAQXAFIEYLLEGGPSSGEPPPEEG (not fully specified; synthetic construct; SITE 2: note = 2-Aminoisobutyric Acid; SITE 13: note = alpha-methyl-leucine; SITE 17: note = Lysine is chemically modified through conjugation of the epsilon-amino group of the Lysine side chain with (2-[2-(2-Amino-ethoxy)-ethoxy]-acetyl)-(gamma-Glu)-CO-(CH2) 18-CO2H; SITE 20: n) [Example 35]
1130

Looking for the measured cAMP Rel EC50 (in the presence of 1% HSA) of YXQGTXTSDXXIXLDXKAQXEFIEXLVEGGPSSGEPPPTGE (not fully specified; Aib, αMeF(2F), 4Pal, αMeS, αMeL, Orn, Me4Pal, αMeY, acyl, amide; synthetic construct; SITE 2: note = 2-Aminoisobutyric Acid; SITE 6: note = alpha-methyl-2-fluoro-L-phenylalanine; SITE 10: note = 3-(4-Pyridyl)-L-alanine; SITE 11: note = alpha-methyl-L-serine; SITE 13: note = alpha-methyl-leucine; SITE 16: note = L-ornithine; SITE 17: note = Lysine is chemically mo) [Example 1153] , can you help?
52.7
